Observed pIC50 for DPP-IV obtained from pig kidney (Sus scrofa), reported per entry below.
Structures can show the parent of a compound that is named as a salt.
The meaning of pIC50 here: minus log10 of the concentration in molar units.

N#Cc1ccccc1Cn1c(=O)n(Cc2ccccc2)c2c(N3CCNCC3)ncc(Oc3ccccc3C(N)=O)c21 [Example 81, trifluoroacetic acid salt]	6.39

Measured pIC50 (DPP-IV obtained from pig kidney (Sus scrofa)), entry CC#CCn1c(=O)n(C)c2nc(Cl)nc(N3CCNCC3)c21 [Example 2, trifluoroacetic acid salt] : 7.06

Measured pIC50 (DPP-IV obtained from pig kidney (Sus scrofa)), entry CC#CCn1c(=O)n(CC2CC2)c2nc(OC)nc(N3CCNCC3)c21.O=C(O)C(F)(F)F [Example 51, trifluoroacetic acid salt] : 6.89

The measured values listed here are drawn from patent US7524847B2.
